test system: corn (Zea mays); test: Test A postemergence; assay type: in vivo; details: Zea mays, post-emergence, 240 h, 125 g ai/ha, Postemergence, visual rating about 10 d after treatment; read-out: Corn plant response rating (0 to 100 scale)
observation-type: plant injury at 125 g/ha
Record the result as number plus unit.

# compound, plant injury at 125 g/ha
data = [
    ("CN1C[C@H](c2cccc(C#N)c2)[C@@H](C(=O)Nc2cccc(F)c2F)C1=O [Compound 1286]", "80%"),
    ("CN1CC(c2cccc(OCC=C(Cl)Cl)c2)C(C(=O)Nc2cccc(F)c2F)C1=O (stereo not drawn) [Compound 1303]", "0%"),
    ("CC(C)Oc1ccc([C@H]2CN(C)C(=O)[C@@H]2C(=O)Nc2ccccc2F)cc1F [Compound 1333]", "0%"),
    ("C=CN1C[C@H](c2ccc(C)c(F)c2)[C@@H](C(=O)Nc2cccc(F)c2F)C1=O (racemic) [Compound 1332]", "0%"),
    ("CN1C[C@H](c2ccc3c(c2)C(F)(F)C(F)(F)O3)[C@@H](C(=O)Nc2cccc(F)c2F)C1=O [Compound 1271]", "40%"),
]

Incoming: Which measured plant injury at 125 g/ha value corresponds to CN1C[C@H](c2csc3c2CCCC3)[C@@H](C(=O)Nc2ccccc2F)C1=O [Compound 1275] ?
Outgoing: 0%

----------
test system: barnyardgrass (Echinochloa crus-galli); test: Test A preemergence; assay type: in vivo; details: 125 g ai/ha, preemergence; 0 to 100 scale (0 no effect, 100 complete control)
observation-type: Plant response rating, Barnyardgrass
I only need the number, thanks.

Incoming: Can you share its Plant response rating, Barnyardgrass? I mean this compound: Cc1cc(NC(=O)C2C(=O)NCC2c2cccc(OC(F)F)c2)ccc1F (stereo not shown) [Compound 424]
Outgoing: 30

Incoming: # get_value(readout='Plant response rating, Barnyardgrass', item= Cc1ccc(C2CNC(=O)C2C(=O)Nc2ccc(F)c(F)c2F)cc1F (racemic) [Compound 371] )
Outgoing: 90

Incoming: Plant response rating, Barnyardgrass for Cc1ccc(F)c(NC(=O)C2C(=O)NCC2c2cccc(OC(F)F)c2)c1 (stereo not shown) [Compound 423] ?
Outgoing: 0

Incoming: # query: Plant response rating, Barnyardgrass of entry COc1cccc(C2CNC(=O)C2C(=O)Nc2cccc(F)c2F)c1 (racemic) [Compound 383]
Outgoing: 50

----------
system: redroot pigweed (Amaranthus retroflexus); test: Test G Post-Emergence Protocol; format: in vivo; conditions: Amaranthus retroflexus, post-emergence, 312 h, 62.5 g ai/ha, evaluated after 13 days, read-out: Pigweed, Redroot damage rating (100=total damage to plant; 0=no damage to plant)
Measured pest or weed control at 62.5 g/ha, listed per entry for reference.
Field format: number, assumed %, no unit text.

Answered cases to consult:
# compound, measured-on, readout-value
measured = [
    ("CN1C[C@@H](c2ccc(C(F)(F)F)cc2)[C@H](C(=O)Nc2ccc(Cl)nn2)C1=O (racemic)", "redroot pigweed (Amaranthus retroflexus)", 20),
    ("Cc1cc([C@@H]2CN(C)C(=O)[C@H]2C(=O)Nc2cccc(F)c2F)cc(Cl)n1 (racemic)", "redroot pigweed (Amaranthus retroflexus)", 0),
    ("CN1C[C@@H](c2ccc(C(F)(F)F)cc2)[C@H](C(=O)Nc2ccnc(C(F)(F)F)c2)C1=O (racemic)", "redroot pigweed (Amaranthus retroflexus)", 0),
    ("Cc1cc(NC(=O)[C@@H]2C(=O)N(C)C[C@H]2c2ccc(C(F)(F)F)cc2)ccc1F (racemic)", "redroot pigweed (Amaranthus retroflexus)", 0),
    ("CN1C[C@@H](c2ccc(C(F)(F)F)cc2)[C@H](C(=O)Nc2cncnc2)C1=O (racemic)", "redroot pigweed (Amaranthus retroflexus)", 0),
    ("CN1C[C@H](c2ccc(C(F)(F)F)cc2)[C@@H](C(=O)Nc2ncccc2[N+](=O)[O-])C1=O (racemic)", "redroot pigweed (Amaranthus retroflexus)", 0),
]

Incoming: I'd like to know its pest or weed control at 62.5 g/ha. The compound in question is CCOC(=O)c1cccc([C@H]2CN(C)C(=O)[C@@H]2C(=O)Nc2ccccc2F)c1 (racemic)
Outgoing: 0

----------
Entries annotated with measured pest or weed control at 500 g/ha
test system: barnyardgrass (Echinochloa crus-galli); assay: Test A preemergence; format: in vivo; settings: Echinochloa crus-galli, pre-emergence, 240 h, 500 g ai/ha, preemergence; visual injury rating about 10 d after treatment, 0 to 100 scale (0 no effect, 100 complete control); read-out: Barnyardgrass plant response rating
Report only the number, with the unit % understood.

Worked cases, answers included:
# smiles-data, measured-on, pest or weed control at 500 g/ha (%)
measured = [
    ("Cc1cccc(NC(=O)[C@H]2C(=O)N(C)C[C@@H]2c2ccc(C(F)(F)F)cc2)c1C", "barnyardgrass (Echinochloa crus-galli)", 90),
    ("Cc1cc([C@H]2CN(C)C(=O)[C@@H]2C(=O)Nc2ccc(F)cc2F)ccc1Cl", "barnyardgrass (Echinochloa crus-galli)", 90),
]

Now take the following molecule into account.
Incoming: Give the reported pest or weed control at 500 g/ha for Cc1ccc([C@H]2CN(C)C(=O)[C@@H]2C(=O)Nc2cccc(F)c2C)cc1Cl (system: barnyardgrass (Echinochloa crus-galli)).
Outgoing: 90

----------
system: corn (Zea mays); assay: Test G Pre-Emergence Protocol; type: in vivo; conditions: Zea mays, pre-emergence, 312 h, 250 g ai/ha, evaluated after 13 days, read-out: Corn damage rating (100=total damage to plant; 0=no damage to plant)
observation-type: plant injury at 250 g/ha (%)
Express the result in % but write the number alone.

Take a look at these entries with their results.
# compound, readout-value
data = [
    ("Cc1cc([C@@H]2CN(C)C(=O)[C@H]2C(=O)Nc2cccc(F)c2F)cc(Cl)n1 (racemic) [Compound 1481]", 60),
    ("Cc1cc(NC(=O)[C@@H]2C(=O)N(C)C[C@H]2c2ccc(C(F)(F)F)cc2)ccc1F (racemic) [Compound 1593]", 0),
    ("CN1C[C@@H](c2ccc(C(F)(F)F)cc2)[C@H](C(=O)Nc2sccc2C#N)C1=O (racemic) [Compound 1520]", 0),
    ("COc1cccc(NC(=O)[C@@H]2C(=O)N(C)C[C@H]2c2ccc(C(F)(F)F)cc2)n1 (racemic) [Compound 1601]", 0),
    ("Cc1c(F)ccc(NC(=O)[C@@H]2C(=O)N(C)C[C@H]2c2ccc(C(F)(F)F)cc2)c1Cl (racemic) [Compound 1651]", 0),
    ("CCOc1ccc([C@@H]2CN(C)C(=O)[C@H]2C(=O)Nc2cccc(F)c2C)cc1Cl (racemic) [Compound 1803]", 30),
]

Incoming: Using the record for Cc1nc(F)ccc1NC(=O)[C@@H]1C(=O)N(C)C[C@H]1c1ccc(C(F)(F)F)cc1 (racemic) [Compound 1654] , report its plant injury at 250 g/ha.
Outgoing: 20

----------
tested on: redroot pigweed (Amaranthus retroflexus); assay: Test G Post-Emergence Protocol; type: in vivo; details: Amaranthus retroflexus, post-emergence, 312 h, 62.5 g ai/ha, evaluated after 13 days, 100=total damage to plant, 0=no damage to plant, read-out: Pigweed, Redroot damage rating
# maps each entry to its pest or weed control at 62.5 g/ha
Numeric only. Scale: %

Sample records with pest or weed control at 62.5 g/ha:
# compound, pest or weed control at 62.5 g/ha [%]
measured = [
    ("CN1C[C@H](c2cccc(C(F)F)c2)[C@@H](C(=O)Nc2ccccc2S(C)(=O)=O)C1=O (racemic) [Compound 1800]", 10),
    ("COCCOc1cccc([C@@H]2CN(C)C(=O)[C@H]2C(=O)Nc2cccc(F)c2C)c1 (racemic) [Compound 1765]", 0),
    ("CCOc1cc(C2CN(C)C(=O)C2C(=O)Nc2cccc(F)c2F)ccc1OC (stereo not shown) [Compound 1719]", 0),
]

Pending compound:
Incoming: I have this compound here, COc1cc(C2CN(C)C(=O)C2C(=O)Nc2cccc(F)c2F)cc(F)c1F (stereo not shown) [Compound 1706] , and I need its recorded pest or weed control at 62.5 g/ha.
Outgoing: 10

----------
test system: giant foxtail (Setaria faberi); assay: Test G Pre-Emergence Protocol; type: in vivo; details: Setaria faberi, pre-emergence, 312 h, 62.5 g ai/ha, evaluated after 13 days, 100=total damage to plant, 0=no damage to plant, read-out: plant damage rating, Foxtail, Giant
Mark y for reported pest or weed control at 62.5 g/ha of 70% or greater; mark n for anything smaller.

Look over these answered cases.
# molecule, qualitative-label
measured = [
    ("CN1C[C@H](c2ccc(C(F)(F)F)cc2)[C@@H](C(=O)Nc2ccccc2S(C)(=O)=O)C1=O (racemic) [Compound 1459]", "n"),
    ("CN1C[C@@H](c2ccc(C(F)(F)F)cc2)[C@H](C(=O)Nc2ccc(F)cc2C(F)(F)F)C1=O (racemic) [Compound 1616]", "y"),
    ("Cc1ccc([C@H]2CN(C)C(=O)[C@@H]2C(=O)Nc2ccccc2F)cc1Cl (racemic) [Compound 1420]", "y"),
]

Incoming: Given CN1C[C@@H](c2cc(Cl)nc(Cl)c2)[C@H](C(=O)Nc2cccc(F)c2F)C1=O (racemic) [Compound 1494] , state whether its pest or weed control at 62.5 g/ha is at least 70%.
Outgoing: y

Incoming: Textbook exercise: given the entry Cc1cccc(NC(=O)[C@@H]2C(=O)N(C)C[C@H]2c2ccc(C(F)(F)F)cc2)c1[N+](=O)[O-] (racemic) [Compound 1636] , state whether its pest or weed control at 62.5 g/ha is greater than or equal to 70%.
Outgoing: n

Incoming: # bool: pest or weed control at 62.5 g/ha of COc1cccc(NC(=O)[C@@H]2C(=O)N(C)C[C@H]2c2ccc(C(F)(F)F)cc2)n1 (racemic) [Compound 1601] >= 70%
Outgoing: n

Incoming: Could you please find out whether Cc1ncc(NC(=O)[C@@H]2C(=O)N(C)C[C@H]2c2ccc(C(F)(F)F)cc2)s1 (racemic) [Compound 1595] has pest or weed control at 62.5 g/ha that meets 70% or exceeds it?
Outgoing: n

Incoming: Does CN1C[C@@H](c2ccc(C(F)(F)F)cc2)[C@H](C(=O)Nc2sccc2C#N)C1=O (racemic) [Compound 1520] have a reported pest or weed control at 62.5 g/ha of at least 70%?
Outgoing: n

Incoming: Decide: pest or weed control at 62.5 g/ha of CN1C[C@H](c2ccc(C(F)(F)F)cc2)[C@@H](C(=O)Nc2ccc(F)cc2[N+](=O)[O-])C1=O (racemic) [Compound 1425] >= 70%?
Outgoing: y

Incoming: Exam item: decide whether the reported pest or weed control at 62.5 g/ha for Cc1ccc([C@H]2CN(C)C(=O)[C@@H]2C(=O)Nc2cccnc2F)cc1 [Compound 1398] is at least 70%.
Outgoing: y

Incoming: Confirm if pest or weed control at 62.5 g/ha reported for the molecule COc1cc([C@@H]2CN(C)C(=O)[C@H]2C(=O)Nc2cccc(F)c2F)ccn1 (racemic) [Compound 1480] is 70% or above.
Outgoing: y
